Molecular target: CYP2C9 (Homo sapiens, UniProt P11712)
Sequence (P11712 whole entry): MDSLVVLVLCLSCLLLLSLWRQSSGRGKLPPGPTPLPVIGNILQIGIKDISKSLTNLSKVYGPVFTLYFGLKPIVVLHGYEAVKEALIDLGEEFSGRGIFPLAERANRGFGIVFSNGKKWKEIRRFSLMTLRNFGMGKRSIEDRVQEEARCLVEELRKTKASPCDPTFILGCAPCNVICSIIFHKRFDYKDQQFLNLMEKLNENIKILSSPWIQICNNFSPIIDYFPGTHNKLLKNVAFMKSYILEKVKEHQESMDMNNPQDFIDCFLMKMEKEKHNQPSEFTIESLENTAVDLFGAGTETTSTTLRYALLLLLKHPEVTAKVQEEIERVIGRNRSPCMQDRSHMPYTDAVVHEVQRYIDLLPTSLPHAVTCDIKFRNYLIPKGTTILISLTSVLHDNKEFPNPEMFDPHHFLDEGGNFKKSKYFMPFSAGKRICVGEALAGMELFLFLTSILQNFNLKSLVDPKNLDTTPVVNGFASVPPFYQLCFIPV
Assay: in vitro
assay endpoint: inhibition at 10 µM
Note: a bare number is incomplete; add the unit.

Prompt: # return recorded inhibition at 10 µM for input Cc1nc2n(c(=O)c1CCN1CCC(=C3c4ccc(Cl)cc4CCc4cccnc43)CC1)CCCC2O (stereo not shown) [Compound 11c]
Completion: 3.17%

###

Experiment: in vitro
Conditions: human, plasma
assay endpoint: remaining at 4 h

Prompt: Give the measured remaining at 4 h for Cc1nc2n(c(=O)c1CCN1CCC(=C3c4ccc(Cl)cc4CCc4cccnc43)CC1)CCCC2O (stereo not shown) [Compound 11c]
Completion: > 98.6%

###

System: CDAHFD-fed C57BL/6 J mice
Test: CDAHFD mice (12 weeks): body weight and clinical signs
Format: in vivo, mouse
Conditions: CDAHFD+11c 10mpk, week 10, 5 mice
assay endpoint: Body weight, Average (g)
Report as a plain number; the unit g is understood.

Prompt: Return the recorded Body weight, Average value; entry: Cc1nc2n(c(=O)c1CCN1CCC(=C3c4ccc(Cl)cc4CCc4cccnc43)CC1)CCCC2O (stereo not shown) [Compound 11c]
Completion: 22

###

System: CDAHFD-fed C57BL/6 J mice
Test: CDAHFD mice (12 weeks): body weight and clinical signs
Format: in vivo, mouse
Settings: CDAHFD+11c 5mpk, week 9, 5 mice
assay endpoint: Body weight, Average (g)
Field format: number, assumed g, no unit text.

Prompt: Respond only with Body weight, Average recorded for Cc1nc2n(c(=O)c1CCN1CCC(=C3c4ccc(Cl)cc4CCc4cccnc43)CC1)CCCC2O (stereo not shown) [Compound 11c]
Completion: 22.1

###

Experiment: in vitro
Conditions: mouse
assay endpoint: IC50

Prompt: Return value of IC50 for input Cc1nc2n(c(=O)c1CCN1CCC(=C3c4ccc(Cl)cc4CCc4cccnc43)CC1)CCCC2O (stereo not shown) [Compound 11c] , no commentary.
Completion: > 100 µM

###

Test system: CDAHFD-fed C57BL/6 J mice
Assay: CDAHFD mice (12 weeks): body weight and clinical signs
Format: in vivo, mouse
Conditions: CDAHFD+11c 5mpk, week 6, 5 mice
assay endpoint: Body weight, Average
Just the number plus its unit, please.

Prompt: Indicate its recorded Body weight, Average; the compound in question is Cc1nc2n(c(=O)c1CCN1CCC(=C3c4ccc(Cl)cc4CCc4cccnc43)CC1)CCCC2O (stereo not shown) [Compound 11c]
Completion: 20.8 g

###

Assay: Pharmacokinetic study in rats
Format: in vivo, Sprague-Dawley rats
Details: male, Sprague-Dawley, plasma, 5 mg/kg; rat, PO (5 mpk); read-out: F (%)
Procedure: The experimental protocol for this study was approved by the IACUC of KPC Co., Ltd. (No. KPC IACUC-P203046; Beagle dogs) or QuBEST BIO (No.QBIACUC-A20131). All relevant ethical guidelines were followed. Beagle male dogs (11 ~ 20 months old) were purchased from ORIENT BIO Inc. and were housed in the barrier animal facility of KPC Co., Ltd. under a regular light-dark cycle (12-hour light/12-hour dark) at 21.1–23.4°C with 55.3–72.2% humidity. […]
assay endpoint: bioavailability (%)
Please reply with the bare figure in % and do not write the unit itself.

Prompt: Quick one: give measured bioavailability for Cc1nc2n(c(=O)c1CCN1CCC(=C3c4ccc(Cl)cc4CCc4cccnc43)CC1)CCCC2O (stereo not shown) [Compound 11c]
Completion: 63
